The measured values listed here are drawn from the supplement of paper PMC10567573.

B1: MATN2 (parent)
chain: FSLKTFKRKSEVERAVKRMRHLST

Variants of: B1
RUN_DESCRIPTION: protein stability index of a GFP-peptide fusion (GPS, HEK-293T) (PSI 1-6); higher = more stable;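 also: lentivirally expressed fusions sorted by FACS into six bins by GFP to DsRed ratio, PSI derived from sequencing read proportions per bin multiplied by bin number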
MEASUREMENT_PARAMETERS: c terminus: a fixed tail appended
Measured protein stability index by item
Just the number, please, no unit after it.

The cases that follow already have their protein stability index on record.
INSERT INTO measurements (sequence_code, value_measured) VALUES
  ('FSNKTFKRKSEVERAVKRMRHLST', 1.98),
  ('FSLKTFQRKSEVERAVKRMRHLST', 1.97),
  ('FSLKTFKRKSSVERAVKRMRHLST', 1.98),
  ('FHLKTFKRKSEVERAVKRMRHLST', 1.99);

Next:
*Q* For the variant FKLKTFKRKSEVERAVKRMRHLST , what protein stability index is on record?
*A* 1.95
